Examples of compounds with documented Ki follow.
MEASURED ON: human Adenosine A3 receptor (Homo sapiens)
Sequence (P0DMS8 whole entry): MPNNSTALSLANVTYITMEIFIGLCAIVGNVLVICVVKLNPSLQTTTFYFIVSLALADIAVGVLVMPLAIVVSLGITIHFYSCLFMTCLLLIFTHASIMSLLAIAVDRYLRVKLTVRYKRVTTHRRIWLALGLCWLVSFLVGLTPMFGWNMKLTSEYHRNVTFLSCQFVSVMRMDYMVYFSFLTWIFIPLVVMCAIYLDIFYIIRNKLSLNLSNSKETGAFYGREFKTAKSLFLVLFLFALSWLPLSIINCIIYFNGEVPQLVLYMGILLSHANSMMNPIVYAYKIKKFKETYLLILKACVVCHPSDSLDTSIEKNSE
METHOD DESCRIPTION: Adenosine receptor TR-FRET binding assay (CA200645 displacement), A3

These recorded examples may help you get a feel for the data.
| COMPOUND | Ki |
| --- | --- |
| Cc1cc(-c2c(-c3cccc(C#N)c3)nn3ccc(N(C)C)nc23)cc(Cl)n1 | 1980 nM |
| Cc1cc(-c2c(-c3cccc(C#N)c3)nn3ccc(N[C@@H](C)CO)nc23)cc(Cl)n1 | > 1000 nM |

Ask: Any idea what Ki came out for "Cc1cc(-c2c(-c3cccc(C#N)c3)nn3ccc(NC(=O)C(C)(C)C)nc23)cc(Cl)n1" on human Adenosine A3 receptor (Homo sapiens)?
Reply: > 1000 nM

Ask: Any idea what Ki came out for Cc1cc(-c2c(-c3cccc(C#N)c3)nn3ccc(C(=O)NCC4CNCCO4)nc23)cc(Cl)n1 (stereo not drawn) on human Adenosine A3 receptor (Homo sapiens)?
Reply: > 1000 nM

----------
Target protein (sequence): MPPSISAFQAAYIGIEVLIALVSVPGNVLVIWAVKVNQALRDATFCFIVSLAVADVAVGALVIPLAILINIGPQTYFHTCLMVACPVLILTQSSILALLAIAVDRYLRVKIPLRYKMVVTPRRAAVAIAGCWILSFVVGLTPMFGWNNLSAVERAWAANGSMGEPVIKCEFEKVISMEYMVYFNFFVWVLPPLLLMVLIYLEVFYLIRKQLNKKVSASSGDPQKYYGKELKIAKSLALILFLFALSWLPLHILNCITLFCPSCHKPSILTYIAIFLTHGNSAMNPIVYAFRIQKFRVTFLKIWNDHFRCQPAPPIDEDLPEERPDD
MEASURED ATTRIBUTE: Ki (nM)

[1] Cc1cc(-c2c(-c3cccc(C#N)c3)nn3ccc(CCC(C)(C)O)nc23)cc(Cl)n1 [Example 22]
[2] Cc1cc(-c2c(-c3cccc(C#N)c3C)nn3ccc(C(=O)NCC(C)(C)O)nc23)cc(Cl)n1 [Example 102]
Ask: Short answer wanted: higher Ki, 1 or 2 ? Give the chosen item's label as your response.
Reply: 2
(2: 233 nM, 1: 141 nM)

----------
System: human PBMCs
METHOD DESCRIPTION: CD3/CD28 stimulated IL-2 release NECA reversal assay in human PBMCs;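 further: dose-response as % inhibition where 100% equals no-NECA control wells with CD3/CD28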
Format: cell-based
SETUP CONDITIONS: PBMC, CD3/CD28 antibody stimulated, 1 uM NECA, 24 hours, IL-2 in culture supernatant
Examples of compounds with documented pIC50 follow.
Units for pIC50: none; it is -log10 of a concentration expressed in mol/L.

| COMPOUND | pIC50 |
| --- | --- |
| Cc1cc(-c2c(-c3cccc(C#N)c3)nn3ccc(NCC4(O)CC4)nc23)cc(Cl)n1 [Example 3.4] | 7.00 |
| Cc1cc(-c2c(-c3cccc(C#N)c3)nn3ccc(C(=O)N[C@@H](C)C(C)(C)O)nc23)cc(Cl)n1 [Example 6] | 8.70 |
| Cc1cc(-c2c(-c3cccc(C#N)c3)nn3ccc(C(=O)NC4COC4)nc23)cc(Cl)n1 [Example 5.5] | 7.68 |

Ask: Suppose we examine the compound Cc1cc(-c2c(-c3cccc(C#N)c3)nn3ccc(NC(=O)CC(C)(C)O)nc23)cc(C)n1 [Example 94.4] ; what pIC50 value has been reported?
Reply: 7.85

Ask: Suppose we examine the compound Cc1cc(-c2c(-c3cccc(C#N)c3)nn3ccc(C(=O)N[C@H]4CC[C@H](N)C4)nc23)cc(Cl)n1 [Example 7.14] ; what pIC50 value has been reported?
Reply: 6.85

Ask: Suppose we examine the compound Cc1cc(-c2c(-c3cccc(C#N)c3)nn3ccc(C(=O)NCCC(C)(C)N)nc23)cc(Cl)n1 [Example 7] ; what pIC50 value has been reported?
Reply: 7.47

Ask: Suppose we examine the compound Cc1cc(-c2c(-c3cccc(C#N)c3)nn3ccc(NCC(C)(C)O)nc23)cc(C)n1 [Example 23.2] ; what pIC50 value has been reported?
Reply: 7.60

Ask: Suppose we examine the compound Cc1cc(-c2c(-c3cccc(C#N)c3)nn3ccc(C(=O)NCC(C)(C)O)nc23)ccn1 [Example 12.2] ; what pIC50 value has been reported?
Reply: 7.66

----------
MEASURED ON: UniProt:P29274
Where a name gives a salt, the structure may show the parent alone.
MEASURED ATTRIBUTE: Ki (µM)

These recorded examples may help you get a feel for the data.
| COMPOUND | MEASURED ON | Ki / µM |
| --- | --- | --- |
| Cc1cc(-c2c(-c3cccc(C#N)c3)nn3ccc(NC(=O)NCC(C)(C)N)nc23)cc(Cl)n1 [Example 31.4, trifluoroacetate] | UniProt:P29274 | 0.0098 |
| CCn1nccc1-c1c(-c2cccc(C#N)c2)nn2ccc(N3CC4CCC(C3)N4C)nc12 | UniProt:P29274 | 0.0286 |

[1] Cc1cc(-c2c(-c3cccc(C#N)c3)nn3ccc(NC(=O)N[C@@H]4CCNC4)nc23)cc(Cl)n1 [Example 31.3, trifluoroacetate]
[2] Cc1cc(-c2c(-c3cccc(C#N)c3)nn3ccc(N)nc23)cnc1N
Ask: // select label with min value of measured Ki from [ 1 , 2 ] Give the chosen item's label as your response.
Reply: 1

----------
MEASURED ON: human Adenosine A1 receptor (Homo sapiens, UniProt P30542)
METHOD DESCRIPTION: Adenosine receptor TR-FRET binding assay (CA200645 displacement), A1
MEASURED ATTRIBUTE: Ki (nM)

These recorded examples may help you get a feel for the data.
| COMPOUND | MEASURED ATTRIBUTE | NUMBER |
| --- | --- | --- |
| CO[C@H]1CN(C)C[C@@H]1NC(=O)c1ccn2nc(-c3cccc(C#N)c3)c(-c3cc(C)nc(Cl)c3)c2n1 [Example 6.14] | Ki | 231 |
| Cc1cc(-c2c(-c3cccc(C#N)c3)nn3ccc(NC(=O)[C@](C)(O)C(F)(F)F)nc23)cc(C)n1 [Example 94.3] | Ki | 184 |
| Cc1cc(-c2c(-c3cccc(C#N)c3)nn3ccc(N)nc23)cc2ncnn12 [Example 27.5] | Ki | 46 |
| Cc1cc(-c2c(-c3cccc(C#N)c3)nn3ccc(CN)nc23)cc(Cl)n1 [Example 21] | Ki | 2440 |
| CC(=O)NC(C)(C)CNC(=O)c1ccn2nc(-c3cccc(C#N)c3)c(-c3cc(C)nc(Cl)c3)c2n1 [Example 98] | Ki | 87 |
| N#Cc1cccc(-c2nn3ccc(N)nc3c2-c2cn[nH]c2)c1 [Example 1.1] | Ki | 95 |
| Cc1cc(-c2c(-c3cccc(C#N)c3)nn3ccc(NC45CC(C(=O)O)(C4)C5)nc23)cc(Cl)n1 [Example 2.38] | Ki | 837 |
| Cc1cc(-c2c(-c3cccc(C#N)c3)nn3ccc(C(=O)NCC4(O)CCNC4)nc23)cc(Cl)n1 (stereo not drawn) [Example 7.6] | Ki | 672 |

[1] Cc1cc(-c2c(-c3cccc(C#N)c3)nn3ccc(C(=O)NCC4(C)CCC(=O)N4)nc23)cc(C)n1 (stereo not drawn) [Example 92.16]
[2] Cc1cc(-c2c(-c3cccc(C#N)c3)nn3ccc(C(=O)NCC4CNCCO4)nc23)cc(Cl)n1 (stereo not drawn) [Example 7.11]
Ask: // select label with min value of measured Ki from [ 1 , 2 ] Give the chosen item's label as your response.
Reply: 2
(2: 137 nM, 1: 232 nM)

----------
pKi: −log10 of the molar value. Structures can show the parent of a compound that is named as a salt.
Target or system human Adenosine A1 receptor (Homo sapiens, UniProt P30542); recorded quantity pKi.
MEASURED ATTRIBUTE: pKi

| MOLECULE | MEASURED ON | NUMBER |
| --- | --- | --- |
| Cc1cc(-c2c(-c3cccc(C#N)c3)nn3ccc(N[C@H]4CCCNC4)nc23)cc(Cl)n1 | human Adenosine A1 receptor (Homo sapiens, UniProt P30542) | 6.67 |

[A] Cc1cc(-c2c(-c3cccc(C#N)c3)nn3ccc(NC(=O)NCCN)nc23)cc(Cl)n1 [Example 31.2, trifluoroacetate]
[B] Cc1cc(-c2c(-c3cccc(C#N)c3)nn3ccc(N[C@@H](C)C(C)(C)O)nc23)cc(Cl)n1
[C] N#Cc1c(-c2ccco2)nn2ccc(N3CCNCC3)nc12
Ask: // ranking: key=pKi, reverse=True Put the labels in the requested order and write them down.
Reply: A, B, C
(A: 6.62, B: 6.05, C: 5.80)

----------
MEASURED ON: human Adenosine A2a receptor (Homo sapiens, UniProt P29274)
Sequence (P29274 whole entry): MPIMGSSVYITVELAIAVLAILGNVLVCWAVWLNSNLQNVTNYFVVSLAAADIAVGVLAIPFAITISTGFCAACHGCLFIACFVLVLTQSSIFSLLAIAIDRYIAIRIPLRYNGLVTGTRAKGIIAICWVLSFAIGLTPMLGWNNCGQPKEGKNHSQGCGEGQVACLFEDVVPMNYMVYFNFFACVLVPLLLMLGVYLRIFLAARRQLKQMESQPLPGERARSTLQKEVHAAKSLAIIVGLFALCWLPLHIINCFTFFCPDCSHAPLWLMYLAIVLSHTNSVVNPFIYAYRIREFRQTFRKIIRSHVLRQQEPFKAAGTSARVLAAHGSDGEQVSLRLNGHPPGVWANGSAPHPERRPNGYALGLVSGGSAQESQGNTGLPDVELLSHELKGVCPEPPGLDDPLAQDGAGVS
Counter-ions that a name gives are not always drawn.
MEASURED ATTRIBUTE: Ki (nM)

| COMPOUND | MEASURED ATTRIBUTE | NUMBER |
| --- | --- | --- |
| CCn1nccc1-c1c(-c2cccc(C#N)c2)nn2ccc(N3CCN(C)C(CO)C3)nc12 (stereo not drawn) | Ki | 14.9 |
| CCn1nccc1-c1c(-c2cccc(C#N)c2)nn2ccc(N)nc12 | Ki | 74.8 |
| Cc1cc(-c2c(-c3cccc(C#N)c3)nn3ccc(NC(=O)N[C@H]4CCNC4)nc23)cc(Cl)n1 [Example 31.1, trifluoroacetate] | Ki | 10.8 |
| Cc1cc(-c2c(-c3cccc(C#N)c3)nn3ccc(C(=O)NCC(C)(O)CO)nc23)cc(Cl)n1 (stereo not drawn) | Ki | 0.9 |

[a] COc1cc(-c2c(-c3cccc(C#N)c3)nn3ccc(C(=O)NCC(C)(C)O)nc23)cc(C)n1
[b] Cc1cc(-c2c(-c3cccc(C#N)c3)nn3ccc(N4CCO[C@@H](C(=O)O)C4)nc23)cc(Cl)n1
Ask: // select label with min value of measured Ki from [ a , b ] Give the chosen item's label as your response.
Reply: a
(a: 1 nM, b: 6.9 nM)
